Test Name: qHTS assay to identify small molecule inhibitors of chordoma cells - UCH-2 (AID 1259356)
Test Parameters: UCH-2 chordoma viability, CellTiter-Glo ATP luminescence, 48 h; series mostly up to 46.1 µM
Records with an inconclusive call do not appear. Activity calls are given as the source filed them. Calls follow the shape of the dose curve; as a rule, active = well fitted cell-killing curve with a large enough effect; inconclusive = small, poorly fitted or top-dose-only effect; inactive = flat fitted curve, though single readings scatter.
Hi! Could you answer with just one of these? active, inactive

# count of solved cases: 10
>>> group("CN(C)CCOC(=O)COc1ccc(Cl)cc1")
"inactive"
>>> group("C(=C\\c1ccccc1)/CN1CCN(C(c2ccccc2)c2ccccc2)CC1")
"inactive"
>>> group("CC1=C(C)C(=O)C(CCCCC#CCCCC#CCO)=C(C)C1=O")
"inactive"
>>> group("NC(N)=N/N=C/c1c(Cl)cccc1Cl")
"inactive"
>>> group("CCC(=O)c1ccc2c(c1)N(CCCN(C)C)c1ccccc1S2")
"inactive"
>>> group("CC(=O)OC(C)C[N+](C)(C)C (stereo not given)")
"inactive"
>>> group("NC(N)=NC(=O)Cc1c(Cl)cccc1Cl")
"inactive"
>>> group("CN(C)C(=O)Oc1ccc[n+](C)c1")
"inactive"
>>> group("CCCN(CCC)C(=O)C(CCC(=O)O)NC(=O)c1ccccc1 (stereo not given)")
"inactive"
>>> group("Nc1ncn([C@@H]2O[C@H](CO)[C@@H](O)[C@H]2O)c(=O)n1")
"inactive"

Task item: Outcome logged for C[n+]1cc2c3c(ccc2c2ccc4cc5c(cc4c21)OCO5)OCO3 in this assay:
Reply: active

Task item: How did this test come out for CN(C(=O)CCCOc1ccc2[nH]c(=O)ccc2c1)C1CCCCC1 ?
Reply: inactive

Task item: Returns: the outcome recorded for C[C@]12CC[C@@H]3c4ccc(O)cc4C[C@@H](CCCCCCCCCS(=O)CCCC(F)(F)C(F)(F)F)[C@H]3[C@@H]1CC[C@@H]2O (stereo not given in full) in this assay.
Reply: inactive

Task item: What outcome does the record of this test show for C[N+](C)(C)CCOC(=O)CCC(=O)OCC[N+](C)(C)C ?
Reply: inactive

Task item: Any idea what this test logged for CC(C)(C)c1ccc(C(=O)CCCN2CCC(OC(c3ccccc3)c3ccccc3)CC2)cc1 ?
Reply: inactive

Task item: Which outcome did this test record for the compound CCOC(=O)c1cnc2c(cnn2CC)c1NN=C(C)C ?
Reply: inactive

###

Test system: CP191
Test Name: qHTS profiling for inhibitors of Plasmodium falciparum proliferation (AID 504749); also: nearly all actives have a fitted effect of over 60% in size
Test Parameters: P. falciparum in erythrocytes, SYBR Green DNA, 72 h; series mostly up to 28.7 µM
Inconclusive results are not listed. The source made the active and inactive calls. Calls come from the whole dose curve; as a rule, active = well fitted inhibition curve with a large enough effect; inconclusive = small, poorly fitted or top-dose-only effect; inactive = flat fitted curve, though single readings scatter.
Parameter call: string, one of y for active, n for inactive

// known answers, use as guide
>>> group("COC(=O)C1=C(C)NC(C)=C(C(=O)OC(C)(C)CN(C)CCC(c2ccccc2)c2ccccc2)C1c1cccc([N+](=O)[O-])c1 (stereo not drawn)")
"y"
>>> group("C[N+](C)(C)CCOC(=O)CCC(=O)OCC[N+](C)(C)C")
"n"

Lab note: next compound to report on.
Task item: # lookup: test call for C[C@H](CS)C(=O)N1CCC[C@H]1C(=O)O
Reply: n

###

Tested on: CP305
Test Name: qHTS profiling for inhibitors of Plasmodium falciparum proliferation (AID 504749); also: nearly all actives have a fitted effect of over 60% in size
Test Parameters: P. falciparum in erythrocytes, SYBR Green DNA, 72 h; series mostly up to 28.7 µM
Results filed as inconclusive are left out. The source made the active and inactive calls. Calls come from the whole dose curve; as a rule, active = well fitted inhibition curve with a large enough effect; inconclusive = small, poorly fitted or top-dose-only effect; inactive = flat fitted curve, though single readings scatter.
Choose the fitting class; nothing outside active, inactive is accepted.

The following compounds have reported results that may help.
>>> group("CN(C)CC[C@@H](c1ccc(Br)cc1)c1ccccn1")
"inactive"
>>> group("CCCCNC(=O)NS(=O)(=O)c1ccc(C)cc1")
"inactive"

Task item: Outcome? FC(F)(F)c1ccccc1-n1ccnc1
Reply: inactive

Task item: Per the records of this test, what outcome belongs to CCCCOCCOCCOCc1cc2c(cc1CCC)OCO2 ?
Reply: inactive

Task item: How was CCN(CC)CC(=O)Nc1c(C)cccc1C classified in this test?
Reply: inactive

###

Tested on: ATS95
Test Name: qHTS profiling for inhibitors of Plasmodium falciparum proliferation (AID 504749); also: nearly all actives have a fitted effect of over 60% in size
Test Parameters: P. falciparum in erythrocytes, SYBR Green DNA, 72 h; series mostly up to 28.7 µM
Inconclusive results are not listed. Activity calls are given as the source filed them. Calls follow the shape of the dose curve; as a rule, active = well fitted inhibition curve with a large enough effect; inconclusive = small, poorly fitted or top-dose-only effect; inactive = flat fitted curve, though single readings scatter.
Respond only with the outcome that fits, drawn from label 1 for active, label 0 for inactive

Example cases with answers are listed next.
>>> group("Nc1nc(N)c2nc(-c3ccccc3)c(N)nc2n1")
"label 0"
>>> group("CCO/C([O-])=N/c1c[n+](N2CCOCC2)no1")
"label 0"
>>> group("CCN1CCc2nc(N)oc2CC1")
"label 0"
>>> group("NS(=O)(=O)c1cc2c(cc1Cl)NC(C1CC3C=CC1C3)NS2(=O)=O (stereo not drawn)")
"label 0"
>>> group("CC(C)(Oc1ccc(CCNC(=O)c2ccc(Cl)cc2)cc1)C(=O)O")
"label 0"

Task item: Hi team, can someone confirm the assay call for CCN(CC)CCNC(=O)c1ccc(NC(C)=O)cc1 ?
Reply: label 0

Task item: Hello, I am checking results. What call was entered for CC(=O)OCC1=C(C(=O)O)N2C(=O)[C@@H](NC(=O)Cc3cccs3)[C@H]2SC1 ?
Reply: label 0

###

Test system: DIV17
Test Name: qHTS profiling for inhibitors of Plasmodium falciparum proliferation (AID 504749); also: nearly all actives have a fitted effect of over 60% in size; also: potency is read from the fitted curve at half-maximal effect
Test Parameters: P. falciparum in erythrocytes, SYBR Green DNA, 72 h; series mostly up to 28.7 µM
Results filed as inconclusive are left out. The source made the active and inactive calls. Calls come from the whole dose curve; as a rule, active = well fitted inhibition curve with a large enough effect; inconclusive = small, poorly fitted or top-dose-only effect; inactive = flat fitted curve, though single readings scatter.
Observable: Potency

// known answers, use as guide
>>> result("CCCCCCCC/C=C\\CCCCCCCC(=O)NCc1ccc(O)c(OC)c1")
"inactive"
>>> result("C[N+](C)(C)CCCCCCCCCC[N+](C)(C)C")
"1.69 µM (active)"
>>> result("CCn1ccnc1CC1COc2ccccc2O1 (stereo unspecified)")
"inactive"
>>> result("CN(C)CCCN1c2ccccc2Sc2ccccc21")
"2.87 µM (active)"
>>> result("NC(=O)c1cn(Cc2c(F)cccc2F)nn1")
"inactive"

The compound O=C(O)CN(CCOCCOCCN(CC(=O)O)CC(=O)O)CC(=O)O showed Potency equal to inactive

###

Tested on: TAB113
Test Name: qHTS profiling for inhibitors of Plasmodium falciparum proliferation (AID 504749); also: nearly all actives have a fitted effect of over 60% in size
Test Parameters: P. falciparum in erythrocytes, SYBR Green DNA, 72 h; series mostly up to 28.7 µM
Inconclusive results are not listed. Activity calls are given as the source filed them. Calls come from the whole dose curve; as a rule, active = well fitted inhibition curve with a large enough effect; inconclusive = small, poorly fitted or top-dose-only effect; inactive = flat fitted curve, though single readings scatter.
Output constraint: value belongs to active, inactive

>>> group("CCNC(=O)N1CCN(CCCC(c2ccc(F)cc2)c2ccc(F)cc2)CC1")
"active"

Task item: Please let me know the test result on file for O=C(O)CP(=O)(O)O .
Reply: inactive

Task item: // return assay outcome for CN(C(=O)CCCOc1ccc2[nH]c(=O)ccc2c1)C1CCCCC1
Reply: inactive

###

System: CP335
Test Name: qHTS profiling for inhibitors of Plasmodium falciparum proliferation (AID 504749); also: nearly all actives have a fitted effect of over 60% in size
Test Parameters: P. falciparum in erythrocytes, SYBR Green DNA, 72 h; series mostly up to 28.7 µM
Procedure: NIH National Institute of Allergy and Infectious Diseases [NIAID] NIH Chemical Genomics Center [NCGC] […] Because mature erythrocytes lack DNA, only Plasmodium-derived DNA is detected. NCGC Assay Protocol Summary: The SYBR Green viability assay was adapted from a method described previously (Plouffe et al., 2008). […] The following morning, fluorescence intensity at 485(14) nm excitation and 535(25) nm emission wavelengths was measured on an EnVision (Perkin Elmer) plate reader. […]
Results filed as inconclusive are left out. Activity calls are given as the source filed them. Calls come from the whole dose curve; as a rule, active = well fitted inhibition curve with a large enough effect; inconclusive = small, poorly fitted or top-dose-only effect; inactive = flat fitted curve, though single readings scatter.
// one of yes = active, no = inactive, no free text

>>> group("CN(C)C/C=C(/c1ccc(Br)cc1)c1cccnc1")
"no"
>>> group("CC(C)(Oc1ccc(CCNC(=O)c2ccc(Cl)cc2)cc1)C(=O)O")
"no"
>>> group("Cc1cc(C)c(/C=C2\\C(=O)Nc3ccccc32)[nH]1")
"no"
>>> group("CCN1CCc2nc(N)oc2CC1")
"no"
>>> group("COCC(=O)O[C@]1(CCN(C)CCCc2nc3ccccc3[nH]2)CCc2cc(F)ccc2[C@@H]1C(C)C")
"yes"
>>> group("CC[N+](C)(C)c1cccc(O)c1")
"no"
>>> group("c1cnc(N2CCN(Cc3ccc4c(c3)OCO4)CC2)nc1")
"no"
>>> group("O=C(O)CN(CCOCCOCCN(CC(=O)O)CC(=O)O)CC(=O)O")
"no"
>>> group("NS(=O)(=O)c1cc2c(cc1Cl)NC(C1CC3C=CC1C3)NS2(=O)=O (stereo unspecified)")
"no"
>>> group("CCN(CC)CCNC(=O)c1ccc(NC(C)=O)cc1")
"no"

Task item: # lookup: test call for CC(=O)OCC1=C(C(=O)O)N2C(=O)[C@@H](NC(=O)Cc3cccs3)[C@H]2SC1
Reply: no

Task item: Status in this test for COCCOC(=O)C1=C(C)NC(C)=C(C(=O)OC(C)C)C1c1cccc([N+](=O)[O-])c1 (stereo unspecified) ?
Reply: yes
